Reference for the values: ChEMBL document CHEMBL1140372

Molecular target: Sodium-dependent serotonin transporter (Rattus norvegicus)
Sequence (P31652 whole entry): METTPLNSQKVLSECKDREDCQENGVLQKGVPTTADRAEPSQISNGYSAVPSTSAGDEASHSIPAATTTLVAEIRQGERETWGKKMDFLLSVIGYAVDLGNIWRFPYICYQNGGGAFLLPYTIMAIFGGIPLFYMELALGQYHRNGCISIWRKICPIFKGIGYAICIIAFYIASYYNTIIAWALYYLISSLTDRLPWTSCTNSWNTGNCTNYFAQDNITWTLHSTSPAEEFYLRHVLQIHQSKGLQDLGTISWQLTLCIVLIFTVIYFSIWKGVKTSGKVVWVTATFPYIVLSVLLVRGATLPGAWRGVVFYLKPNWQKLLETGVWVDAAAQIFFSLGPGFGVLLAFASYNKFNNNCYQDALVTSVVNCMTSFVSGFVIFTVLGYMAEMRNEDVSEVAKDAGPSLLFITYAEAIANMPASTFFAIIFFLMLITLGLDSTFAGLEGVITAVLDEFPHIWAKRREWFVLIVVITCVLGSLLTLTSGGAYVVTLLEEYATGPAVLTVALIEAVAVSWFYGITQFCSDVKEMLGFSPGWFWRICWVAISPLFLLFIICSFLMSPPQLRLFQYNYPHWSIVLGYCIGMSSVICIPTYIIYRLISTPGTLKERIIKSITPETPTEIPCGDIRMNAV
Assay: In vitro inhibitory constant against [3H]paroxetine binding to rat frontal cortex membrane serotonin reuptake site
Reported Ki is given for each of the following compounds.
I only need the number, in nM, no unit after it.

Here's what some known entries look like.
C[C@@H]1Oc2c(cccc2N2CCN(CCCc3c[nH]c4ccccc34)CC2)NC1=O :: 1
CN1CCCc2c1cccc2N1CCN(CCCc2c[nH]c3ccccc23)CC1 :: 7.4
O=C1CCc2c(cccc2N2CCN(CCCc3c[nH]c4ccccc34)CC2)N1 :: 1.5
CC1(C)Oc2c(cccc2N2CCN(CCCc3c[nH]c4ccccc34)CC2)NC1=O :: 2.8

Consider the additional compound presented here.
## Task What does the data say about its Ki? Entry: CC1Oc2c(N3CCN(CCCc4c[nH]c5ccccc45)CC3)cccc2N(C)C1=O (stereo not given)
## Result 1.4
